- measuredOn: USP28 (USP28-5(1-1077)-TEV-6*His; LifeSensors) (Homo sapiens, UniProt Q96RU2)
- Construct: construct USP28 (USP28-5(1-1077)-TEV-6*His; LifeSensors); TEV cleavage site (C); 6xHis (C); purchased LifeSensors
- measurementNotes: Ubiquitin-Rhodamine 110 Assay for USP28 Activity, Example A-1(b)
- Type: biochemical
- conditions: Ub-Rh110 assay, Example A-1(b)
- Description: Example A-1(b): Biochemical Assay: Ubiquitin-Rhodamine 110 Assay for USP28 Activity […] For assay formats Example A-1(a), A-1(b), and A-2, data were reported as percent inhibition compared with control wells based on the following equation: % inh=1−((FLU−AveLow)/(AveHigh−AveLow)) where FLU=measured Fluorescence, AveLow=average Fluorescence of no enzyme control (n=16), and AveHigh=average Fluorescence of DMSO control (n=16). […]
observable: USP28 A-1(b) IC50 range

A selection of reference data follows.
Prompt line: Recorded USP28 A-1(b) IC50 range for "Cc1ccc2c(N)c(C(=O)N[C@H]3COc4c(ccc(N5CCNCC5)c4F)C3)sc2n1" , please?
Response line: +++ (0.05-0.2 μM)

Prompt line: Next entry: "Cc1ccc2c(N)c(C(=O)N[C@H]3COc4cc(N5CCNC[C@H]5C)ccc4C3)sc2n1"
Response line: ++++ (0.001-0.05 μM)

Prompt line: Next entry: "Cc1ccc2c(N)c(C(=O)N[C@H]3COc4cc(N5CCCC56CNC6)ccc4C3)sc2n1"
Response line: +++ (0.05-0.2 μM)

Prompt line: Next entry: Cc1ccc2c(N)c(C(=O)N[C@H]3COc4cc(N5CCN[C@H](C)[C@H]5C)ccc4C3)sc2n1 (single isomer, unassigned)
Response line: ++++ (0.001-0.05 μM)

Prompt line: Next entry: Cc1cnc2c(N)c(C(=O)N[C@H]3CCc4c(ccc(N5CCNCC5)c4C)C3)sc2n1 (single isomer, unassigned)
Response line: + (>2 μM)

Prompt line: Next entry: "Cc1cc(C)c2c(N)c(C(=O)N[C@H]3COc4cc(N5CC6CNCC(C5)C6(F)F)ccc4C3)sc2n1"
Response line: ++++ (0.001-0.05 μM)

Prompt line: Next entry: "Cc1nc2sc(C(=O)N[C@@H]3COc4cc(N5CC6CCC(C5)N6)ccc4C3)c(N)c2s1"
Response line: + (>2 μM)

Prompt line: Next entry: Cc1nc2sc(C(=O)N[C@@H]3COc4cc(N5CCNCC5)cc(F)c4C3)c(N)c2s1 (single isomer, unassigned)
Response line: ++ (0.2-2 μM)

Prompt line: Next entry: "Cc1nc2sc(C(=O)N[C@H]3COc4cc(N5CC6CNCC(C5)C6(F)F)ccc4C3)c(N)c2s1"
Response line: +++ (0.05-0.2 μM)

Prompt line: Next entry: "Cc1nc2sc(C(=O)N[C@H]3COc4cc(N5CCNCC5)ccc4C3)c(N)c2s1"
Response line: ++ (0.2-2 μM)

Lab note: next molecule to report on.
Prompt line: Recorded USP28 A-1(b) IC50 range for Cc1ccc2c(N)c(C(=O)N[C@@H]3COc4cc(N5CCN[C@H](C)[C@@H]5C)ccc4C3)sc2n1 (single isomer, unassigned) , please?
Response line: ++ (0.2-2 μM)

---

- measuredOn: USP28 (His-tagged USP28-FL-mammalian) (Homo sapiens, UniProt Q96RU2)
- Construct: Expression of USP28 (1-1077)-TEV-6*His (pTT5 vector); made in house; host or cells: Expi293f cells (pTT5 vector)
- Sequence (Q96RU2 whole entry): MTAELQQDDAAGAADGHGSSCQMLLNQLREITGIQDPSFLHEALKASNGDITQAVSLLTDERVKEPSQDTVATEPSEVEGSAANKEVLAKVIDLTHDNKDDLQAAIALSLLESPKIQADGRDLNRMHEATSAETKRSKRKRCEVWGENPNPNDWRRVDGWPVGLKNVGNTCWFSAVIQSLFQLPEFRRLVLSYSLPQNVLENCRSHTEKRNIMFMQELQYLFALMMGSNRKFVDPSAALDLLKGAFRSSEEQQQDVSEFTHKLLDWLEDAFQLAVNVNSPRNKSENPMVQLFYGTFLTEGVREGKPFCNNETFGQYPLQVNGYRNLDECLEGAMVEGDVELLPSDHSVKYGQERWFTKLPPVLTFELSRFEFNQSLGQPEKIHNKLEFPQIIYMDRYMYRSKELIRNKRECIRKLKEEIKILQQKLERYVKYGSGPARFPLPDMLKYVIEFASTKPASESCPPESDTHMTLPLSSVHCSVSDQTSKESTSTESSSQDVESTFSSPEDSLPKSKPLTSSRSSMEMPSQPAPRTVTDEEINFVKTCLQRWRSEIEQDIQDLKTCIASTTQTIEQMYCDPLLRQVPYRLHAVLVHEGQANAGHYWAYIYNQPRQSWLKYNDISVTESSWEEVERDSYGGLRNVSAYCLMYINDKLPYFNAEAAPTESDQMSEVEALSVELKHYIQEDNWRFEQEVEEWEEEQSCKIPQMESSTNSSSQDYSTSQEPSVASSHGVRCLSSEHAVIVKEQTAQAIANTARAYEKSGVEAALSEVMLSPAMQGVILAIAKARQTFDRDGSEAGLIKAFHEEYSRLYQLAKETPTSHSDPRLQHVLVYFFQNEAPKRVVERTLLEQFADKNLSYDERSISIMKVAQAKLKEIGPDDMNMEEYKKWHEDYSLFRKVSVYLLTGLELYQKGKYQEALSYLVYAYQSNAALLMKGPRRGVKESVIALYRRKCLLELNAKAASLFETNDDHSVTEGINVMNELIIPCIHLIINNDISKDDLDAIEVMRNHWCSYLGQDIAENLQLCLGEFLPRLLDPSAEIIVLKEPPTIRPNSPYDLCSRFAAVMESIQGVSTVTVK
- measurementNotes: Ubiquitin-Rhodamine 110 Assay for USP28 Activity, Example A-1(a)
- Format: biochemical
- conditions: Ub-Rh110 assay, Example A-1(a); read-out: USP28 A-1(a) IC50 range
Hi there, I'd appreciate the recorded IC50 for every entry that follows.

Prompt line: Observed IC50 on USP28 (His-tagged USP28-FL-mammalian) (Homo sapiens, UniProt Q96RU2) for "Cc1ccc2c(N)c(C(=O)N[C@H]3COc4cc(N5CCNC[C@@H]5C)ccc4C3)sc2n1" , please.
Response line: 0.001 to 0.05 µM

Prompt line: Next entry: Cc1ccc2c(N)c(C(=O)N[C@H]3COc4cc(N5CC6CCC(C5)N6)ccc4C3)sc2n1 (single isomer, unassigned)
Response line: 0.001 to 0.05 µM

Prompt line: Next entry: CCn1ccc2cc(C(=O)N[C@@H]3COc4cc(N5CC6CCC(C5)N6)ccc4C3)cnc21 (single isomer, unassigned)
Response line: 0.2 to 2 µM
